Recorded TGI, one value per entry.
Tested on: M19-MEL melanoma
experimentDescription: NCI tumour cell line growth inhibition, 48 h

COc1ccc(C(c2ccccc2)C(C)C(=O)c2c(C)cc(C)cc2C)cc1 (stereo not given); > 100 µM
CC1C=CC(=O)C(n2cc(F)c(=O)[nH]c2=O)O1 (stereo not given); 36.3 µM
O=C(COc1ccccc1)NS(=O)(=O)c1ccccc1; > 100 µM
CCOC(=O)c1cn(Cc2ccccc2)c(=O)n1Cc1ccccc1; > 100 µM
Nc1ccn(C2CC(CO)C(O)C2O)c(=O)n1 (stereo not given); > 57.7 µM
COC(=O)[C@]1(C)CCC[C@@]2(C)C1CCC1=CC3(C(C)C)CCC12OO3 (stereo not given in full); > 100 µM
Nc1c(-c2ccc(Cl)cc2Cl)[n+]([O-])c2ccccc2[n+]1[O-]; > 100 µM
CC1=C(C(=O)NCc2ccccc2)C(c2ccccc2[N+](=O)[O-])C(C(=O)NCc2ccccc2)=C(C)N1; 23.9 µM

Inquiry: If you can, please state the reported TGI value of COc1ccc(/C=C2\CCC(C)(CN(C)C)C2=O)cc1 (stereo not given) .
Reply text: > 100 µM

Inquiry: If you can, please state the reported TGI value of CS(=O)(=O)Nc1ccc(Nc2c3ccccc3nc3ccccc23)cc1 .
Reply text: 15 µM

Inquiry: If you can, please state the reported TGI value of CC(C)=CC(=O)Cc1nc2cc(C)c(C)cc2[nH]c1=O .
Reply text: > 100 µM

Inquiry: If you can, please state the reported TGI value of CC(C)(C)C(=O)C1CC(=O)c2ccccc2C1=O (stereo not given) .
Reply text: > 100 µM

Inquiry: If you can, please state the reported TGI value of O=C(NO)C12C3C4C1C1C2C3C41C(=O)NO (stereo not given) .
Reply text: > 100 µM

Inquiry: If you can, please state the reported TGI value of N#CCCN(c1ccc(-c2nnc(NC(=O)CNNC(=O)CC(=O)Nc3ccccc3)s2)cc1)S(=O)(=O)c1ccccc1 .
Reply text: > 100 µM

Inquiry: If you can, please state the reported TGI value of CN(C)CC1(C)CC/C(=C\c2ccccc2)C1=O (stereo not given) .
Reply text: > 100 µM

* * *

System: NCI-H23 lung
experimentDescription: NCI tumour cell line growth inhibition, 48 h
Recorded GI50, one value per entry.

N#Cc1ccnc(N2C(=O)CC[C@H]2C(=O)N(c2cncc(F)c2)[C@H](C(=O)NC2CC(F)(F)C2)c2ccccc2Cl)c1; > 100 µM
CCCc1nc2c(C)cc(-c3nc4ccccc4n3C)cc2n1Cc1ccc(-c2ccccc2C(=O)O)cc1; 51.5 µM

Inquiry: If you can, please state the reported GI50 value of CCOC(=O)c1sc(Nc2ccc(Cl)cc2)nc1C .
Reply text: 1.5 µM

Inquiry: If you can, please state the reported GI50 value of C[C@H]1[C@H](C)CC[C@]2(C(=O)O)CC[C@]3(C)C(=CC[C@@H]4[C@@]5(C)C/C(=C/c6ccco6)C(=O)C(C)(C)[C@@H]5CC[C@]43C)[C@H]12 .
Reply text: 3.85 µM

Inquiry: If you can, please state the reported GI50 value of Nc1c(C(=O)Nc2ccccc2Cl)sc2nc3c(cc12)CCCCCC3 .
Reply text: 8.83 µM

Inquiry: If you can, please state the reported GI50 value of N.N.NCCCCN.O=C([O-])C1(C(=O)[O-])CCC1.O=C([O-])C1(C(=O)[O-])CCC1.[Pt+4].[Pt+4] .
Reply text: 78.6 µM

Inquiry: If you can, please state the reported GI50 value of C=C(C)[C@@H]1CC[C@]2(C)[C@H](CC[C@@H]3[C@H]4[C@H]5OC[C@@]4(CCC5(C)C)CC[C@]32C)[C@@]1(C)CCCN .
Reply text: 1.77 µM

Inquiry: If you can, please state the reported GI50 value of COc1ccc2c(c1)CCC1C2CC[C@]2(C)/C(=N/OC(=O)Cc3ccccc3)CCC12 (some centres undefined) .
Reply text: 16.2 µM

Inquiry: If you can, please state the reported GI50 value of Cc1[nH]c(=O)[nH]c(=O)c1CO .
Reply text: > 100 µM
